- measured-on: full-length human Tim3 on cells (CHO-K1 stably transfected with plasmid 15312_hTIM3-fl_pUC_Neo) (human, UniProt Q8TDQ0 22-301)
- run-description: cell-based or functional assay
endpoint: IFN-gamma release in MLR at 40 µg/ml antibody, % of rec hu IL-2 (20 EU/ml) = 100% (%)
API: value field is a number in %; no unit string.

Known results for binders:
Tim3_0038 (antibody, V domains shown) VH: EVQLQQSGAEPLKPGASVKLTCTTSGFNIKDYYIHWVKQRSDQGLEWIGRIDPEDGELIYAPKFQDKATITVDTSSNIAYLQLNSLTSEDTAVYYCSRDHGYVGWFAYWGQGTLVTVSA VL: NVVMTQSPKSMIMSVGQRVTLNCKASENVDTYVSWYQQKPEQSPKLLIYGASNRYTGVPDRFTGSRSATDFTLTISSVQAEDLAVYYCGQSYSYPWTFGGGTKLEFR ... 51
Tim3_0033 (antibody, V domains shown) VH: QGQMHQSGAELVKPGSSVKLSCKTSGFTFSSSFISWLKQKPGQSLEWIAWIYAATGSTSYNQKFTNKAQLTVDTSSSAAYMQFSSLTTEDSAIYYCARHAGYPHYYAMDYWGQGTSVTVSS VL: DIQMTQSPASLSASVGETVTITCRASENIFSNLAWYQQKQGKSPQLLVYSATNLGDGVPSRFSGSGSGTQFSLKINSLQPEDFGNYYCQHFYKIPFTFGTGTKLEIK ... 35

Continue with the next binder.
Would you mind telling me what IFN-gamma release in MLR at 40 µg/ml antibody, % of rec hu IL-2 (20 EU/ml) = 100% value was observed for Tim3_0021 (antibody, V domains shown) VH: QVQLQQSGPQLVRPGASVQISCKASGYSFTSYLLHWLKQRPGQGLEWIGMIDPSDSETRLNQKFKDKATLTVDKSSSTAYMQLSSPTSEDSAVYYCARDGYYAWYYFDCWGQGTTLTVSS VL: DIVLTQSPATLSVTPGDRVSLSCRASQSIGNNLHWYQQKSHESPRLLIKYASHSISGIPSKFSGTGSGTDFTLSFNSVETEDFGMYFCQQSNSWPLTFGAGTKLELK ?
112

From: patent US20190322748A1
